Data origin, for the record: BindingDB's records for doi:10.1016/j.bmcl.2013.02.084

# Target Or System: UniProtKB Q3SYC2
# Sequence (Q3SYC2 whole entry, looked up): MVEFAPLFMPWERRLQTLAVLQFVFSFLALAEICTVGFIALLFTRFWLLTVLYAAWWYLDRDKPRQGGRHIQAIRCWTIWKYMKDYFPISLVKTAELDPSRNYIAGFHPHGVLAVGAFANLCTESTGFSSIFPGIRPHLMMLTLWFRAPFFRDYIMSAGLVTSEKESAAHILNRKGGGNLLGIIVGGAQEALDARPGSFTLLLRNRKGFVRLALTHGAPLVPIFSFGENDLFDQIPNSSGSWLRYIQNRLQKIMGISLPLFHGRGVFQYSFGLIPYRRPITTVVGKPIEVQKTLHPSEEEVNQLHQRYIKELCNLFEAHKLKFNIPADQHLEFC
# Experiment Description: Inhibition of human recombinant MGAT2 expressed in insect cell membrane using 2-oleoyl-sn-glycerol and oleoyl coenzyme A as substrate after 40 mins by Ellmans assay based rapidfire LCMS analysis
pIC50: −log10 of the molar value.
Measure: pIC50

1. CCC1(C)NC(=O)c2cc(S(=O)(=O)Nc3ccc(Cl)cc3)ccc2NC1=O (stereo not drawn)
2. CCC1(C)NC(=O)c2cc(S(=O)(=O)Nc3ccccc3Cl)ccc2NC1=O (stereo not drawn)
3. CCC1(C)NC(=O)c2cc(S(=O)(=O)NC3CCCCC3)ccc2NC1=O (stereo not drawn)
Parameters: sort_by = pIC50; order = desc; input = items above. Provide the labels, sequenced as the question asks.
1, 2, 3
(1: 7.60, 2: 7.20, 3: 5.30)
